Just for reference, PubChem BioAssay is where these values come from.

# TEST METHOD NOTES: AML differentiation inducers, ER-HoxA9 marrow cells – cell-based, GFP/MAC1 double positive, flow cytometry, validation set, primary screen (AID 588685);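 further: compound exposure lasts four days before antibody staining and flow analysis; 0% = DMSO wells and 100% = 5 µM fulvestrant positive control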
# CONDITION CONTEXT: stronger effect = higher value, normalized: vehicle 0, fulvestrant 100
Kindly supply the reported differentiation response values for the records listed here.
One number for each entry, in %.

MOLECULE	READOUT VALUE
CN1CCCN=C1COC(=O)C(O)(c1ccccc1)C1CCCCC1 (stereo not drawn)	5.13
CC(=O)NC(Cc1ccccc1)C(=O)OCC(=O)c1ccccc1 (stereo not drawn)	-21.7

Look up differentiation response for the entries below, preserving their order.
1. Cn1c(Oc2ccc3c(c2)OCO3)nc2c1c(=O)n(Cc1ccccc1)c(=O)n2C
2. Cc1ccc(-n2cc(CNCCN3CCOC3=O)c(-c3ccc(F)cc3)n2)cc1
3. Cn1cc(CN2CCC(C(=O)N3CCCCC3)CC2)c(-c2ccccc2F)n1
4. COc1ccc(NC(=O)N2CCCCC2c2cccnc2)cc1 (stereo not drawn)
5. CC(=O)OCC(=O)[C@@]1(O)CC[C@H]2[C@@H]3CCC4=CC(=O)C=C[C@]4(C)[C@H]3[C@@H](O)C[C@@]21C

// result
-4.99
-1.65
0
-18.8
5.73

Look up differentiation response for the entries below, preserving their order.
1. O=C(/C=C/c1ccc2c(c1)OCO2)NCc1ccc(F)cc1
2. O=C(/C=C/c1ccco1)Nc1ccccc1C(=O)O

// result
1: 15.9; 2: 23.2

Look up differentiation response for the entries below, preserving their order.
1. CC1(C)C(=O)OC(c2cccs2)C2(CCCCC2)C1=O (stereo not drawn)
2. CCOC(=O)C1=C2c3ccc4ccccc4c3CC(C)(C)N2C(=O)C1=O

// result
53
-8.8

Look up differentiation response for the entries below, preserving their order.
1. O=CNC1CCCc2c1[nH]c1ccc(Cl)cc21 (stereo not drawn)
2. COC(=O)C1=C(C)N(Cc2ccco2)C(=O)/C1=C\c1ccc([N+](=O)[O-])cc1
3. CCOc1cc2c3c(c1)C(C)=CC(C)(C)N3C(=O)C2=O
4. COC(=O)[C@H]1[C@H]2C[C@@H]3c4[nH]c5cc(OC)ccc5c4CCN3C[C@H]2C[C@@H](OC(=O)c2ccc(N)cc2)[C@@H]1OC

// result
1: 8.06; 2: 42.3; 3: -0.8; 4: 0.24

Look up differentiation response for the entries below, preserving their order.
1. Nc1ccc2cn[nH]c2c1
2. O=C(NC1CC1)C1CCN(C2CCN(C(=O)Cc3ccc(F)cc3)CC2)CC1
3. COc1cc2c(cc1OC)-c1nnc(C)n1C(C)(C)C2
4. O=C(O)CCn1cnc2ccccc2c1=O
5. CC[N+]1(CC)CC2=Cc3ccccc3CC2C1 (stereo not drawn)

// result
[-16.3, 6.55, -28, -8.8, 0]

Look up differentiation response for the entries below, preserving their order.
1. Fc1ccccc1CNCCC(Cc1ccccc1)c1ccc2c(c1)OCO2 (stereo not drawn)
2. COc1ccc(/C=C/C(=O)Nc2ccccc2C(=O)O)cc1OC
3. Cc1nc2c(c3c1[nH]c1ccccc13)C(=O)CC(C)(C)C2

// result
1: -5.68; 2: -5.62; 3: -5.6
